Entry source: ChEMBL document CHEMBL1157685

# SYSTEM UNDER TEST: UniProt P56817
# Sequence (P56817 whole entry): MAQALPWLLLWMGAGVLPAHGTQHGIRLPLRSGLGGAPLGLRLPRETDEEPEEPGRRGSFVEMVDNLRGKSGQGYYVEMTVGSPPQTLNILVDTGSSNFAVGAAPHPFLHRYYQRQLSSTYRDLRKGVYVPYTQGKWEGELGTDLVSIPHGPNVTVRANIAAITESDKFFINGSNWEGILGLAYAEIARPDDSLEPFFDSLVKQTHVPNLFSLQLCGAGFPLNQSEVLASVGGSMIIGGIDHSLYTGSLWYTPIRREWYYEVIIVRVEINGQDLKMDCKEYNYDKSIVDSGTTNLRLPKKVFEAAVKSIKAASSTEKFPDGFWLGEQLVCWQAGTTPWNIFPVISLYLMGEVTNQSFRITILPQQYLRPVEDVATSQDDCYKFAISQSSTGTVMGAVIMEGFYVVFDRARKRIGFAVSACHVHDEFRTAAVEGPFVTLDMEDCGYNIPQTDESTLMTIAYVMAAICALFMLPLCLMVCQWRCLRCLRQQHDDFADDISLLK
# PROCEDURE SUMMARY: Inhibition of human recombinant BACE1 after 60 mins by fluorescence assay
List of IC50 values.
Quick reminder: number only, in µM, skip the unit.

- COMPOUND SMILES: "CC(C)=CCOc1c2ccoc2cc2oc(=O)ccc12"
  DISPLAY UNIT: "µM"
  IC50: 244
- COMPOUND SMILES: "COc1cc2occc2c(OCC=C(C)C)c1CCC(=O)O"
  DISPLAY UNIT: "µM"
  IC50: 203
- COMPOUND SMILES: "COC(=O)CCc1c(OC)cc2occc2c1OCC=C(C)C"
  DISPLAY UNIT: "µM"
  IC50: 16.2
- COMPOUND SMILES: "CC(C)=CCOc1c2occc2cc2ccc(=O)oc12"
  DISPLAY UNIT: "µM"
  IC50: 91.8
- COMPOUND SMILES: "CC(C)=CCOc1c(CCC(=O)O)c(O)cc2occc12"
  DISPLAY UNIT: "µM"
  IC50: 186

Query compound follows.
Qu. Output measured IC50 for this item: "COC(=O)CCc1c(O)cc2occc2c1OCC=C(C)C"
Ans. 30.5
